target: human Edg-1 receptor (Homo sapiens, UniProt P21453); construct: expressed in transfected cells; membrane preparation; experiment: GTP-γ-S assay using human Edg-1 receptors (scintillation proximity assay, membrane preparation from CHO Flp-In cell line); type: biochemical; conditions: example compound at 10 μM; relative to 10 μM S1P; GTP-γ-S SPA, human Edg-1 membranes; read-out: % Activation (Edg-1 receptor activation in percent of the activation by 10 μM S1P)
Sequence (P21453 whole entry): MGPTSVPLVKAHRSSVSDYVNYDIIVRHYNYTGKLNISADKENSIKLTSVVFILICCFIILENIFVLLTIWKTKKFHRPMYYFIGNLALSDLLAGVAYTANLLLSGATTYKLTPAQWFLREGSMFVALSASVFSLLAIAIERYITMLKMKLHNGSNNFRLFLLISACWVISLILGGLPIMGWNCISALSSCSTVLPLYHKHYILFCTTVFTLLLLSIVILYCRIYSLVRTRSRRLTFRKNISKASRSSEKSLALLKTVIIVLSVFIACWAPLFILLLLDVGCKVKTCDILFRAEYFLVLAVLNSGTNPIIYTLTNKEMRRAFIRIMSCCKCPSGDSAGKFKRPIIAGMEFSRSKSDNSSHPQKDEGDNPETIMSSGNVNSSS
parameter: activation at 10 µM (%)

Below are worked cases with known answers.
- compound: "CCCOc1nc(Cc2ccc(Cl)cc2)nc2oc(-c3cc(C)c(OCCO)c(C)c3)nc12"
  uom: "%"
  activation at 10 µM: 102
- compound: "CCOc1nc(Cc2ccc(Cl)cc2)nc2oc(-c3cc(C)c(OCC(=O)NCC(=O)O)c(C)c3)nc12"
  uom: "%"
  activation at 10 µM: 123
- compound: "CCCOc1nc(Cc2ccc(Cl)cc2)nc2oc(-c3cc(C)c(OCC(=O)NCC(=O)O)c(C)c3)nc12"
  uom: "%"
  activation at 10 µM: 112

a. CCCOc1nc(Cc2ccc(Cl)cc2)nc2oc(-c3cc(C)c(OCC(O)CNC(=O)c4ccccc4)c(C)c3)nc12 (centres unmarked)
b. CCCOc1nc(Cc2ccc(Cl)cc2)nc2oc(-c3cc(C)c(OCC(O)CO)c(C)c3)nc12 (centres unmarked)
**Q:** Could you point out whether the larger activation at 10 µM belongs to a or to b ? Answer = label.
**A:** b
(b: 128%, a: 84%)

I. CCCOc1nc(CN2CCOCC2)nc2oc(-c3ccco3)nc12
II. CCCOc1nc(CN2CCOCC2)nc2oc(-c3cc(F)ccc3Cl)nc12
**Q:** # query: argmin of activation at 10 µM over I and II Answer = label.
**A:** I

Every entry's value here was drawn from patent US8735387B2.
